- Test system: passive Arthus reaction
- MEASUREMENT_DESCRIPTION: Anti-inflammatory activity test: passive Arthus reaction (Example of Test 2)
- Type: in vivo, male guinea pigs of the Hartley strain
- CONDITION_LABEL: Table 21; 3 mg/kg i.v., 30 min before antigen
Listing of recorded Percent inhibition (passive Arthus reaction) by entry.
EXPERIMENTAL_ENDPOINT: Percent inhibition (passive Arthus reaction) (%)

MOLECULE: CCCCCCCCCCCCCCCCCCCCCCCC(=O)NC(COC1OC(CO)C(OC2OC(CO)C(O)C(OC3(C(=O)[O-])CC(O)C(NC(C)=O)C(C(O)C(O)CO)O3)C2O)C(OC2OC(C)C(O)C(O)C2O)C1NC(C)=O)C(O)CCCCCCCCCCCCCCC.[Na+] (centres unmarked)
EXPERIMENTAL_VALUE: 74.4

MOLECULE: CC(=O)NC1C(O)CC(OC2C(O)C(CO)OC(OC3C(CO)OC(OCC4OC(O)C(O)C(O)C4O)C(NC(C)=O)C3OC3OC(C)C(O)C(O)C3O)C2O)(C(=O)[O-])OC1C(O)C(O)CO.[Na+] (centres unmarked)
EXPERIMENTAL_VALUE: 58.7

MOLECULE: CCCOC1OC(CO)C(OC2OC(CO)C(O)C(OS(=O)(=O)[O-])C2O)C(OC2OC(C)C(O)C(O)C2O)C1NC(C)=O.[Na+] (centres unmarked)
EXPERIMENTAL_VALUE: 64.8

MOLECULE: CCCOC1OC(CO)C(OC2OC(C)C(O)C(O)C2O)C(OC2OC(CO)C(O)C(O)C2OCC(=O)[O-])C1NC(C)=O.[Na+] (centres unmarked)
EXPERIMENTAL_VALUE: 57.4

MOLECULE: CCCOC1OC(CO)C(OC2OC(C)C(O)C(O)C2O)C(OC2OC(CO)C(O)C(OCC(=O)[O-])C2OCC(=O)[O-])C1NC(C)=O.[Na+].[Na+] (centres unmarked)
EXPERIMENTAL_VALUE: 15.9

MOLECULE: CC(=O)NC1C(O)CC(OC2C(O)C(CO)OC(OC3C(CO)OC(OC4C(O)C(O)OC(CO)C4O)C(NC(C)=O)C3OC3OC(C)C(O)C(O)C3O)C2O)(C(=O)[O-])OC1C(O)C(O)CO.[Na+] (centres unmarked)
EXPERIMENTAL_VALUE: 57.4

MOLECULE: CCCOC1OC(CO)C(OC2OC(CO)C(O)C(OCC(=O)[O-])C2O)C(OC2OC(C)C(O)C(O)C2O)C1NC(C)=O.[Na+] (centres unmarked)
EXPERIMENTAL_VALUE: 14.9

MOLECULE: CCCOC1OC(CO)C(OC2OC(C)C(O)C(O)C2O)C(OC2OC(CO)C(O)C(OS(=O)(=O)[O-])C2O)C1NC(C)=O.[Na+] (centres unmarked)
EXPERIMENTAL_VALUE: 77.3
